Record set: pIC50 | SIK2 (Homo sapiens, UniProt Q9H0K1) | literature, multiple sources.
pIC50: −log10 of the molar value.

Ask | Given the entry COc1cc(-c2cnc3cc(OC[C@H]4CCCN(CCC#N)C4)ccn23)cc(OC(F)F)c1C(=O)NC1CC1 , report its measured pIC50.
Reply | 8.00 to 11.00

Ask | Give the measured pIC50 of COc1cc(-c2cnn3cc(OCCN4CCOCC4)cnc23)cc2c1C(=O)N(CC(F)(F)F)CC2 .
Reply | 7.00 to 8.00

Ask | Endpoint output: pIC50 of COc1cc(-c2cnc3cc(OCc4cnco4)ccn23)cc2c1C(=O)N(CC(F)(F)F)CC2 . Value?
Reply | 8.00 to 11.00

Ask | # query: pIC50 of entry COc1cc(-c2cnc3cc(OCCCN4CC(O)C(F)(F)C4)ccn23)cc(OC(F)F)c1C(=O)NC1CC1 (stereo not shown)
Reply | 8.00 to 11.00

Ask | What value of pIC50 has been recorded for this entry: COc1cc(-c2c3c(C(F)F)cc(-c4cnn(C)c4)cc3nn2C)cc(OC(F)F)c1C(=O)N[C@@H]1CC1(F)F
Reply | 7.91

Ask | If you can, please state the reported pIC50 value of COc1cc(-c2cnc3cc(OCCOCCO)ccn23)cc(OC(F)F)c1C(=O)NC1CC1 .
Reply | 8.00 to 11.00

Ask | // returns reported pIC50 for input O=C1c2ncc(-c3cnc4cc(OCCN5CCOCC5)ccn34)cc2CN1CC(F)(F)F
Reply | < 6.30
